Assign melting point to each entry below.

Task: Respond only with melting point recorded for "COc1ccc(-c2oc3ncnc(N4CCCCCC4)c3c2-c2ccc(F)cc2)cc1OC"
Result: 148 to 150 °C

Task: Respond only with melting point recorded for "COc1ccc(C(=O)Nc2ccc(-c3oc4ncnc(N5CCN(C)CC5)c4c3-c3ccc(F)cc3)cc2)cc1"
Result: 252 to 253 °C

Task: Respond only with melting point recorded for "CN1CCN(c2ncnc3oc(-c4ccc(N)cc4)c(-c4ccc(F)cc4)c23)CC1"
Result: 214 to 215 °C

Task: Respond only with melting point recorded for "CN1CCN(c2ncnc3oc(-c4ccc(NCc5ccccc5)cc4)c(-c4ccccc4)c23)CC1"
Result: 161 to 163 °C

Task: Respond only with melting point recorded for "CN1CCN(c2ncnc3oc(-c4ccc(NC(=O)c5cccnc5)cc4)c(-c4ccc(F)cc4)c23)CC1"
Result: > 250 °C

Task: Respond only with melting point recorded for "COc1cc(OC)cc(-c2oc3ncnc(N(C)CCO)c3c2-c2ccccc2)c1"
Result: 132 to 134 °C

Task: Respond only with melting point recorded for "COc1ccc(-c2oc3ncnc(N4CCN(CCO)CC4)c3c2-c2ccccc2)cc1OC"
Result: 188 to 189 °C

Task: Respond only with melting point recorded for "COc1ccc(-c2c(-c3ccc(OC)c(OC)c3)oc3ncnc(NC4CCCCC4)c23)cc1"
Result: 181 to 182 °C

Task: Respond only with melting point recorded for "COc1ccc(-c2oc3ncnc(N4CCN(CCO)CC4)c3c2-c2ccc(F)cc2)cc1OC"
Result: 156 to 158 °C

Task: Respond only with melting point recorded for "CN1CCN(c2ccc(-c3oc4ncnc(N5CCN(C)CC5)c4c3-c3ccccc3)cn2)CC1"
Result: 176 to 177 °C
